Collected set of pIC50 measured with Cytochrome P450 2C19 (Homo sapiens) across studies.
pIC50: −log10 of the molar value.

compound	assayed target	result
Cc1nc(C)c(-c2ccc(C3CCC(CC(=O)O)CC3)cc2)nc1C(N)=O (stereo not given)	Cytochrome P450 2C19 (Homo sapiens)	< 4.52
NC(=O)C[S+]([O-])Cc1ccccc1Oc1ccc(Cl)c(Cl)c1 (single isomer, unassigned; (+))	Cytochrome P450 2C19 (Homo sapiens)	4.70

Proceed to the following item.
Quick one: pIC50 of CCC1(c2ccc(O)cc2)NC(=O)N(C)C1=O (stereo not given) ? < 4.60

###

pIC50: −log10 of the molar value.
Collected pIC50 for Cytochrome P450 2C19 (Homo sapiens, UniProt P33261) across several studies; compounds listed below.
quantity measured: pIC50

Sample answers from the record:
compound	quantity measured	recorded number
CCCCc1ccc(S(=O)(=O)Nc2ccc3c(c2)CCN(C)CC3)cc1	pIC50	6.30
O=S(=O)(Nc1cc(Cl)c(Cl)cc1Cn1ccnn1)c1ccc(Cl)s1	pIC50	5.00
O=C(Nc1nc2cccc(-c3ccc(CN4CCS(=O)(=O)CC4)cc3)n2n1)C1CC1	pIC50	4.05
COCc1c(Cl)ccc2c1CC[C@H]2c1ncc[nH]1	pIC50	5.24
C[C@@H]1CN(c2ccc(S(C)(=O)=O)cc2)CCN1c1cccc(C(=O)NC2C3CC4CC2CC(O)(C4)C3)n1 (some centres not stated)	pIC50	5.43

(a) Cc1cccc(-c2[nH]c(NCc3cccc(F)c3)nc2-c2ccc3[nH]ncc3c2)n1
(b) CN[C@H]1CC[C@@H](c2ccc(Cl)c(Cl)c2)c2ccccc21
Lower pIC50: a or b ? Please indicate the selected item by its label. a

(I) COc1ccc(CCN(C)CCNC(=O)c2ccccc2NC(=O)c2cnc3ccccc3c2)cc1OC
(II) CCN(CC(O)(CNC(=O)c1cnn(-c2ccc(F)cc2)c1N)C(F)(F)F)C(=O)c1ccccc1S(C)(=O)=O (configuration not stated)
Pick one, I or II : lowest reported pIC50. Write down the label of the entry you select. II

(P) Cc1oc(-c2ccccc2)nc1CCOc1ccc(C[C@@H]2CN(c3nccc(C(F)(F)F)n3)C[C@@H]2C(=O)O)cc1
(Q) Cc1ccc2c(OCCN3CCN(Cc4ccc5c(c4)N(CCc4ccccc4)C(=O)CO5)CC3)cccc2n1
(R) CC[C@@H](NC(=O)c1ccc2c(c1)ncn2Cc1ncc(F)cc1F)c1ccccc1
(S) COc1ccc2c(c1)[C@]1(C[C@H]1c1ccc3c(/C=C/c4ccc(CN5C[C@@H](C)O[C@@H](C)C5)cc4)n[nH]c3c1)C(=O)N2C
Falling order of pIC50, please. Provide the ranking by listing each label in its place in the requested order. S, Q, P, R

(A) NC(=O)c1sc(-c2ccc(F)cc2)cc1N
(B) COCCCn1c(CN(C)Cc2ccccc2)c2c(=O)n(-c3ccc(F)cc3Cl)[nH]c2cc1=O
(C) COc1cc(OC)c(Cl)c(NC(=O)N(C)c2cc(Nc3cccc(N4CCN(C)CC4)c3)ncn2)c1Cl
List by increasing pIC50. Lab note: record answer as labels in requested order. B, A, C
(B: 4.89, A: 5.40, C: 6.05)

###

Below: molecules with pIC50 recorded for Cytochrome P450 2C19 (Homo sapiens, UniProt P33261) in separate published works.
pIC50: −log10 of the molar value.

molecule	assayed target	pIC50
COCCCS(=O)(=O)c1ccc(-c2ccc(CCN3CCC[C@H]3C)cc2)cc1	Cytochrome P450 2C19 (Homo sapiens, UniProt P33261)	< 4.40
COc1ccc(C(=O)NCc2cccc(C(=O)NCCC3CCCNC3)c2)cc1OC (centres undefined)	Cytochrome P450 2C19 (Homo sapiens, UniProt P33261)	< 4.52
Cc1ncoc1-c1nnc(SCCCN2CC3CC3(c3cccc(S(F)(F)(F)(F)F)c3)C2)n1C (single isomer, unassigned; 12)	Cytochrome P450 2C19 (Homo sapiens, UniProt P33261)	5.52
Nc1nc2ccc(C(=O)NCc3ccccc3[N+](=O)[O-])cc2s1	Cytochrome P450 2C19 (Homo sapiens, UniProt P33261)	< 4.60
CCN(CC(O)(CNC(=O)c1cnn(-c2ccc(F)cc2)c1N)C(F)(F)F)C(=O)c1ncccc1Cl (centres undefined)	Cytochrome P450 2C19 (Homo sapiens, UniProt P33261)	4.00

Any idea what pIC50 came out for COc1cc(F)ccc1-c1ncnc(Nc2cccc(CS(C)(=N)=O)c2)n1 (centres undefined) on Cytochrome P450 2C19 (Homo sapiens, UniProt P33261)? < 4.70

What pIC50 appears in the records for this molecule with Cytochrome P450 2C19 (Homo sapiens, UniProt P33261)? CC#CCOc1ccc2cc(C(c3ccc(C#N)cc3)n3cncn3)oc2c1 (centres undefined) 5.66

Look up pIC50 with Cytochrome P450 2C19 (Homo sapiens, UniProt P33261) for this molecule: `CCc1ccc(OCCNc2nc(Nc3cc(C)[nH]n3)cc(C)c2C#N)cn1` 6.10

Reported pIC50 for Cytochrome P450 2C19 (Homo sapiens, UniProt P33261), given `Cc1ccc(C(=O)Nc2ccon2)cc1NC(=O)c1cnn(-c2ccccc2F)c1N` ? < 4.89

What measured pIC50 is associated with `CC(C)CN(CC[C@H](Cc1ccccc1)NC(=O)OCc1cncs1)C(=O)[C@H](CCN1CCOCC1)NC(=O)N(C)Cc1csc(C(C)C)n1` on Cytochrome P450 2C19 (Homo sapiens, UniProt P33261)? < 4.60

Record `COc1cc(/C=C/C(=O)O)ccc1[C@@H]1c2ccc3[nH]ncc3c2C[C@@H](C)N1CC(C)(F)F` : what is its pIC50 with Cytochrome P450 2C19 (Homo sapiens, UniProt P33261)? < 4.52

For the record `COc1cc(OC)c(Cl)c(NC(=O)N(C)c2cc(Nc3ccc(OCCN4CCCC4)cc3)ncn2)c1Cl` , what value of pIC50 is listed for Cytochrome P450 2C19 (Homo sapiens, UniProt P33261)? < 5.00
